biological target: Phosphodiesterase 4 (Homo sapiens, UniProt P27815+Q08499+Q07343+Q08493); assay: Inhibition of guinea pig PDE IV; format: protein assay, Cavia porcellus; details: target entry is the homologue from another species
observation-type: IC50 (nM)

Answered cases to consult:
- compound: "COc1ccc(C(=O)Nc2c(C)cccc2C)cc1OC1CCCC1"
  observation-type: "IC50"
  result-number: 106
- compound: "COc1ccc(C(=O)Nc2ccccc2Cl)cc1OC1CCCC1"
  observation-type: "IC50"
  result-number: 186
- compound: "COc1ccc(C(=O)Nc2ccncc2Cl)cc1OC1CCCC1"
  observation-type: "IC50"
  result-number: 16

(1) COc1ccc(C(=O)Nc2c(Cl)cncc2Cl)cc1OC1CC2CCC1C2 (racemic)
(2) COc1ccc(C(=O)Nc2c(F)cccc2F)cc1OC1CCCC1
(3) COc1ccc(C(=O)Nc2c(Cl)cccc2Cl)cc1OC1CCCC1
(4) CCCCOc1cc(C(=O)Nc2c(Cl)cncc2Cl)ccc1OC
Hi! Can you put these in order of IC50, lowest number first? Respond with the label ranking, as requested.
1, 4, 3, 2

(I) COc1ccc(C(=O)Nc2ccccc2)cc1OC1CCCC1
(II) COc1ccc(C(=O)Nc2c(Cl)c[n+]([O-])cc2Cl)cc1OC1CCCC1
Form: Entry with minimum IC50 (choose one): I / II State the label of the item chosen.
II
(II: 2.3 nM, I: 2566 nM)
